# RUN DESCRIPTION: Aqueous solubility of the compound by nephelometry method
# Format: physicochemical
# RECORDED CONDITIONS: buffer
MEASURED ATTRIBUTE: solubility kinetic

Solved entries (count: 5):
Item under review: Cc1cc2ccccc2n1CCNC(=O)c1ccc(-c2nnn[nH]2)cc1 . Reported solubility kinetic?
257 µM

Entry Cc1cc2ccccc2n1CCNC(=O)c1ccc(N2CCCC2)cc1 : reported solubility kinetic = ?
< 25 µM

Need solubility kinetic of Cc1cc2ccccc2n1CCNC(=O)c1ccc(N(C)C)cc1 , thanks.
< 25 µM

What does the record list as solubility kinetic for Cc1cc2ccccc2n1CCNC(=O)c1cnc(Nc2ccccc2)nc1 ?
< 25 µM

Requested read-out: solubility kinetic. Entry: CCCN(CCC)c1ccc(C(=O)NCCn2c(C)cc3ccccc32)cc1
< 25 µM

More entries:
Give its solubility kinetic value. Item: Cc1cc2ccccc2n1CCNC(=O)c1ccc(N2CCCCC2)cc1
< 25 µM

Query (compound): Cc1cc2ccccc2n1CCNC(=O)c1ccc(N2CCOCC2)cc1 ; field requested: solubility kinetic
67 µM

Report solubility kinetic for Cc1[nH]c2ccccc2c1CCNC(=O)c1ccc(N2CCOCC2)cc1 please.
< 25 µM

GET /values?readout=solubility kinetic&item= Cc1[nH]c2ccccc2c1CCNC(=O)c1ccc(N(C)C)cc1
< 25 µM

Quick one: solubility kinetic of CCN(CC)c1ccc(C(=O)NCCn2c(C)cc3ccccc32)cc1 ?
< 25 µM

Need solubility kinetic, item Cc1cc2ccccc2n1CCNC(=O)c1ccc(N2CCC(O)CC2)cc1
160 µM

###

# RUN DESCRIPTION: Metabolic stability of the compound in mouse liver microsomes assessed as compound remaining at 10 uM after 60 mins
# Assay type: ADME
# RECORDED CONDITIONS: read-out: Stability
MEASURED ATTRIBUTE: remaining at 1 h, 10 µM (%)
The response must be a number in % with no trailing unit.

Form field: reported remaining at 1 h, 10 µM of Cc1cc2ccccc2n1CCNC(=O)c1ccc(N2CCC(O)CC2)cc1
2

More entries:
Please report the recorded remaining at 1 h, 10 µM for Cc1cc2ccccc2n1CCNC(=O)c1ccc(N2CCCC2)cc1 .
18

Using the record for Cc1cc2ccccc2n1CCNC(=O)c1ccc(N2CCC(C(=O)O)CC2)cc1 , report its remaining at 1 h, 10 µM.
86

I am curious: what remaining at 1 h, 10 µM value has been reported for Cc1[nH]c2ccccc2c1CCNC(=O)c1ccc(N2CCOCC2)cc1 ?
0.5

GET /values?readout=remaining at 1 h, 10 µM&item= Cc1cc2ccccc2n1CCNC(=O)c1ccc(N2CCCCCC2)cc1
12

What does the data say about its remaining at 1 h, 10 µM? Entry: Cc1[nH]c2ccccc2c1CCNC(=O)c1ccc(N(C)C)cc1
0

Record request: remaining at 1 h, 10 µM value, item CCCN(CCC)c1ccc(C(=O)NCCn2c(C)cc3ccccc32)cc1
6

What does the record list as remaining at 1 h, 10 µM for CCN(CC)c1ccc(C(=O)NCCn2c(C)cc3ccccc32)cc1 ?
3

Quick check: remaining at 1 h, 10 µM of CCN(CC)c1ccc(C(=O)NCCc2c(C)[nH]c3ccccc23)cc1 ?
5

###

# STUDY TARGET: Prostaglandin E2 receptor EP2 subtype (Homo sapiens)
# RUN DESCRIPTION: Antagonist activity at EP2 receptor (unknown origin) expressed in rat C6 cells assessed as inhibition of PGE2-induced response
# Format: cell-based
MEASURED ATTRIBUTE: Kb (nM)
Write down the numeric answer in nM and omit the unit.

I am curious: what Kb value has been reported for Cc1cc2ccccc2n1CCNC(=O)c1ccc(C#N)c(F)c1 ?
140

// query Kb value for entry Cc1cc2ccccc2n1CCNC(=O)c1ccc(NC(=O)c2ccccc2F)cc1
51

So what's the measured Kb for this one? CC(=O)Nc1ccc(C(=O)NCCn2c(C)cc3ccccc32)cc1F
530

What Kb value was documented for this molecule, O=C(NCCn1c(C(F)(F)F)cc2ccccc21)c1ccc(N2CCOCC2)cc1 ?
120

May I ask what Kb has been recorded for Cc1cc2ccccc2n1CCNC(=O)c1ccc(N2CCC(C)CC2)cc1 ?
30.3
